For each entry below, report its viability at 15 µM value.
# Test system: DU145-TXR cells
# Measurement Description: MTT viability assay, reversal of MDR (re-sensitization to paclitaxel) in P-gp overexpressing DU145-TXR cells
# Assay type: cell-based, human
# Measurement Parameters: Homo sapiens, 15 µM Compound Alone; DU145-TXR; trial 2, sample 2; read-out: % Survival

Worked set:
> print(dat)
                                   compound  system.under.test  result
1  CCN1CCN(Cc2c(C(=O)N/N=C3/C(=O)N(C)c4ccccc43)nnn2-c2nonc2N)CC1 [Compound 61]    DU145-TXR cells     75%
2  O=S(=O)(CCSc1nnc(-c2ccccc2)c2ccccc12)c1ccccc1 [Compound 96]    DU145-TXR cells     85%
3  O=C(NCc1cccc(F)c1)c1nnn2c1Sc1c(C(=O)NCc3cccc(F)c3)nnn1CC2 [Compound 122]    DU145-TXR cells    107%

Fill in viability at 15 µM for each of the 4 compounds listed.
1. O=C(c1nc(-c2ccccn2)no1)N1CCN(c2nsc3ccccc23)CC1 [Compound 124]
2. COc1cc2c(cc1OC)CN(CCc1ccc(NC(=O)c3cc(OC)c(OC)cc3NC(=O)c3cnc4ccccc4c3)cc1)CC2 [Tariquidar, reference compound]
3. Cc1ccc(-c2noc(-c3cn(Cc4ccc(NS(=O)(=O)c5ccccc5F)cc4)cn3)n2)cc1 [Compound 103]
4. COc1ccc(OC)c(NC(=O)c2nnn(-c3ccc4noc(-c5ccccc5)c4c3)c2C)c1 [Compound 71]

Given back:
1: 94%; 2: 106%; 3: 104%; 4: 25%

Asked: Report measured viability at 15 µM; entry is NS(=O)(=O)c1cccc(NC(=O)CSc2nnnn2C2CC2)c1 [Compound 89, NS(=O)(=O)c1cccc(NC(=O)CSc2nnnn2C2CC2)c1]
Given back: 92%
